From: patent US8796289B2

# Experimental System: GST-tagged-Wee1 kinase (Homo sapiens, UniProt P30291)
# Sequence (P30291 whole entry): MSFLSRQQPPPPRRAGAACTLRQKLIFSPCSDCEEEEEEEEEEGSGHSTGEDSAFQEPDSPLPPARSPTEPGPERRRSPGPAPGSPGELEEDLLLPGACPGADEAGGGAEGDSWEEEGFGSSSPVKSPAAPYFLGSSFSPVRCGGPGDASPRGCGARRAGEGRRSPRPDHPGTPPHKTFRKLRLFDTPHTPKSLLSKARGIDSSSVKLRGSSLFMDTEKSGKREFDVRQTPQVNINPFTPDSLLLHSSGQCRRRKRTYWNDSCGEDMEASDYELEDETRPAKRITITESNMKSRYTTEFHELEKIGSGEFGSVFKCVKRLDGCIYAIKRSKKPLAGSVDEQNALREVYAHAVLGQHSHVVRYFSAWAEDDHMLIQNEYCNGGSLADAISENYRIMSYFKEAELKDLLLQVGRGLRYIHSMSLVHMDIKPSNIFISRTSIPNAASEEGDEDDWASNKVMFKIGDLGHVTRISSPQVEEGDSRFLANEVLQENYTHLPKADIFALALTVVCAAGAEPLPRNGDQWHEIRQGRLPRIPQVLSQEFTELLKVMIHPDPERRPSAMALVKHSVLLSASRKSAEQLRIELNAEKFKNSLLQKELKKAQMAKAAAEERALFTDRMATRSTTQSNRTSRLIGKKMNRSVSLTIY
# Run Description: Wee1 time-resolved fluorescence equilibrium binding assay (displacement of Oregon Green-labeled ATP-competitive kinase probe)
pKi: −log10 of the molar value.
Lab note: anything with pKi at or over 9 counts as rule met; the rest go in rule not met.

- Compound: "CC(C)n1nc(-c2ccccn2)c2nc(Nc3ccc4c(c3)CN(C)CC43CC3)ncc2c1=O [Example 274]"
  Assigned Category: "rule not met"
- Compound: "Cc1nn(-c2c(Cl)cccc2Cl)c(=O)c2cnc(Nc3ccc4c(c3)CNC4(C)C)nc12 [Example 489]"
  Assigned Category: "rule met"
- Compound: "O=c1c2cnc(Nc3ccc4c(c3)CNCC43CC3)nc2c(-c2cccc(F)n2)nn1-c1c(Cl)cccc1Cl [Example 257]"
  Assigned Category: "rule not met"
- Compound: "O=c1c2cnc(Nc3ccc(N4CCNCC4)cc3)nc2c(-c2cnccn2)nn1-c1c(Cl)cccc1Cl [Example 220]"
  Assigned Category: "rule met"
- Compound: "Cc1cc(Nc2ncc3c(=O)n(-c4ccccc4Cl)nc(-c4ccccc4)c3n2)ccc1N1CCCN(C(C)C)CC1 [Example 206]"
  Assigned Category: "rule met"
- Compound: "O=c1c2cnc(Nc3ccc(N4CCNCC4)cc3)nc2c(CO)nn1-c1c(Cl)cccc1Cl [Example 430]"
  Assigned Category: "rule met"
- Compound: "Cc1nn(-c2c(Cl)cccc2Cl)c(=O)c2cnc(Nc3cccc(N4CCCCC4)c3)nc12 [Example 504]"
  Assigned Category: "rule not met"
- Compound: "CN1CCN(c2ccc(Nc3ncc4c(=O)n(C5CCC5)nc(-c5ccncc5)c4n3)cc2)CC1 [Example 282]"
  Assigned Category: "rule not met"
- Compound: "Cc1ccccc1-n1nc(-c2ccccc2)c2nc(Nc3ccc(S(=O)(=O)N4CCOCC4)cc3)ncc2c1=O [Example 109]"
  Assigned Category: "rule not met"
- Compound: "Cc1nn(-c2c(Cl)cncc2Cl)c(=O)c2cnc(Nc3ccc4c(c3)CCNC4)nc12 [Example 448]"
  Assigned Category: "rule met"
- Compound: "CN1CCCC(c2ccc(Nc3ncc4c(=O)n(-c5c(Cl)cccc5Cl)nc(C(F)F)c4n3)cc2)C1 (stereo not shown) [Example 486]"
  Assigned Category: "rule met"
- Compound: "CN1Cc2cc(Nc3ncc4c(=O)n(C5CCCCC5)nc(-c5ccccn5)c4n3)ccc2C(C)(C)C1 [Example 262]"
  Assigned Category: "rule not met"
- Compound: "CN1Cc2cc(Nc3ncc4c(=O)n(-c5c(Cl)cccc5Cl)ncc4n3)ccc2C2(CC2)C1 [Example 324]"
  Assigned Category: "rule met"
- Compound: "CCCc1nn(C)c(=O)c2cnc(Nc3ccc(N4CCN(C)CC4)cc3)nc12 [Example 11]"
  Assigned Category: "rule not met"
- Compound: "Cc1nn(-c2c(Cl)cccc2Cl)c(=O)c2cnc(Nc3ccc(N4CCC(N(C)C)CC4)cc3)nc12 [Example 425]"
  Assigned Category: "rule met"
- Compound: "CC(=O)N1CCN(c2ccc(Nc3ncc4c(=O)n(-c5c(Cl)cccc5Cl)nc(-c5ccncc5)c4n3)cc2)CC1 [Example 378]"
  Assigned Category: "rule met"
- Compound: "CN1CCC(n2nc(-c3ccccn3)c3nc(Nc4ccc(N5CCNCC5)cc4)ncc3c2=O)CC1 [Example 322]"
  Assigned Category: "rule not met"
- Compound: "Cc1cccc(Cl)c1-n1nc(C)c2nc(Nc3ccc(NC4CCN(C)CC4)cc3)ncc2c1=O [Example 501]"
  Assigned Category: "rule met"
- Compound: "COc1cc(Nc2ncc3c(=O)n(-c4ccccc4Cl)nc(-c4ccccc4)c3n2)ccc1N1CCN(C(C)C)CC1 [Example 207]"
  Assigned Category: "rule met"
- Compound: "Cc1nn(-c2c(F)cccc2Cl)c(=O)c2cnc(Nc3ccc4c(c3)CC(N(C)C)C4)nc12 (stereo not shown) [Example 366]"
  Assigned Category: "rule met"

====

# Experimental System: GST-tagged-Wee1 kinase (Homo sapiens, UniProt P30291)
# Run Description: Wee1 time-resolved fluorescence equilibrium binding assay (displacement of Oregon Green-labeled ATP-competitive kinase probe)
pKi: −log10 of the molar value.

- Smi: "CC(C)n1cc(-c2nn(-c3c(F)cccc3Cl)c(=O)c3cnc(Nc4ccc5c(c4)CNCC54CC4)nc23)cn1"
  Experimental System: "GST-tagged-Wee1 kinase (Homo sapiens, UniProt P30291)"
  pKi: 9.68
- Smi: "Cc1nn(-c2c(Cl)cccc2Cl)c(=O)c2cnc(Nc3ccc(N4C[C@H]5C[C@@H]4CN5)cc3)nc12"
  Experimental System: "GST-tagged-Wee1 kinase (Homo sapiens, UniProt P30291)"
  pKi: 9.55
- Smi: "Cc1cc(Nc2ncc3c(=O)n(-c4c(F)cccc4Cl)nc(C)c3n2)ccc1N1CCCN(C)CC1"
  Experimental System: "GST-tagged-Wee1 kinase (Homo sapiens, UniProt P30291)"
  pKi: 9.27

====

# Experimental System: UniProt:P30291
# Run Description: Wee1 time-resolved fluorescence equilibrium binding assay (displacement of Oregon Green-labeled ATP-competitive kinase probe)
pKi: −log10 of the molar value.

- Compound: "O=c1c2cnc(Nc3ccc(N4CCNCC4)cc3)nc2cnn1-c1c(Cl)cccc1Cl"
  Experimental System: "UniProt:P30291"
  pKi: 9.15
- Compound: "Cc1nn(-c2c(F)cccc2Cl)c(=O)c2cnc(Nc3ccc4c(c3)CN(C)CC43CC3)nc12"
  Experimental System: "UniProt:P30291"
  pKi: 8.59
- Compound: "C=Cn1cc(-c2nn(-c3c(Cl)cccc3Cl)c(=O)c3cnc(Nc4ccc(N5CCN(C)CC5)cc4)nc23)cn1"
  Experimental System: "UniProt:P30291"
  pKi: 9.70
- Compound: "Cc1cccc(Cl)c1-n1nc(C)c2nc(Nc3ccc4c(c3)CNCC4)ncc2c1=O"
  Experimental System: "UniProt:P30291"
  pKi: 9.80
- Compound: "CN1Cc2cc(Nc3ncc4c(=O)n(-c5ccccc5Cl)nc(-c5ccccc5)c4n3)ccc2C2(CC2)C1"
  Experimental System: "UniProt:P30291"
  pKi: 10.00
- Compound: "CN1CCN(c2ccc(Nc3ncc4c(=O)n(-c5c(F)cccc5Cl)nc(-c5ccncc5)c4n3)cc2)CC1"
  Experimental System: "UniProt:P30291"
  pKi: 9.57
- Compound: "CN1CCN(c2ccc(Nc3ncc4c(=O)n(-c5ccccc5)nc(-c5cnn(C)c5)c4n3)cc2)CC1"
  Experimental System: "UniProt:P30291"
  pKi: 7.61
- Compound: "Cc1cccc(Cl)c1-n1nc(C)c2nc(Nc3ccc4c(c3)CNCC4(C)C)ncc2c1=O"
  Experimental System: "UniProt:P30291"
  pKi: 9.59
- Compound: "CN1CCN(c2ccc(Nc3ncc4c(=O)n(-c5c(Cl)cccc5Cl)nc(-c5cccc(NNc6c(Cl)cccc6Cl)n5)c4n3)cc2)CC1"
  Experimental System: "UniProt:P30291"
  pKi: 8.40
- Compound: "CN1CCN(c2ccc(Nc3ncc4c(=O)n(-c5ccccc5C(F)(F)F)nc(-c5ccccc5)c4n3)cc2)CC1"
  Experimental System: "UniProt:P30291"
  pKi: 9.10
- Compound: "CN1CCN(c2ccc(Nc3ncc4c(=O)n(-c5c(Cl)cccc5Cl)nc(C5CC5)c4n3)cc2)CC1"
  Experimental System: "UniProt:P30291"
  pKi: 9.32
- Compound: "Cc1nn(-c2c(Cl)cccc2Cl)c(=O)c2cnc(Nc3ccc4c(c3)CN(C)C4(C)C)nc12"
  Experimental System: "UniProt:P30291"
  pKi: 9.80
- Compound: "CN1CCN(c2ccc(Nc3ncc4c(=O)n(-c5c(F)cccc5Cl)nc(-c5cnn(C)c5)c4n3)cc2)CC1"
  Experimental System: "UniProt:P30291"
  pKi: 9.21
- Compound: "Cc1nn(-c2ccccc2Cl)c(=O)c2cnc(Nc3ccc(NC4CCNCC4)cc3)nc12"
  Experimental System: "UniProt:P30291"
  pKi: 9.32
- Compound: "CN1CCN(c2ccc(Nc3ncc4c(=O)n(-c5c(Cl)cccc5Cl)nc(C5CCCNC5)c4n3)cc2)CC1 (stereo not drawn)"
  Experimental System: "UniProt:P30291"
  pKi: 8.40
- Compound: "CN1CCN(c2ccc(Nc3ncc4c(=O)n(-c5c(Cl)cccc5Cl)nc(-c5cccnc5)c4n3)cc2)CC1"
  Experimental System: "UniProt:P30291"
  pKi: 10.05
- Compound: "Cc1nn(-c2c(Cl)cncc2Cl)c(=O)c2cnc(Nc3ccc4c(c3)CNCC43CC3)nc12"
  Experimental System: "UniProt:P30291"
  pKi: 9.40
- Compound: "CN1Cc2cc(Nc3ncc4c(=O)n(-c5c(Cl)cccc5Cl)nc(-c5ccccn5)c4n3)ccc2C2(CC2)C1"
  Experimental System: "UniProt:P30291"
  pKi: 9.22

====

# Experimental System: GST-tagged-Wee1 kinase (Homo sapiens)
# Run Description: Wee1 time-resolved fluorescence equilibrium binding assay (displacement of Oregon Green-labeled ATP-competitive kinase probe)
# Experimental: Wee1 kinase was assayed using a time-resolved fluorescence equilibrium binding assay monitoring displacement of a rapidly reversible Oregon Green-labeled ATP-competitive kinase probe (N-(2-(2-(2-(4-(4-(5-chloro-4-(2-(1-hydroxycyclobutyl)thiazol-5-yl)-1H-pyrrolo[2,3-b]pyridin-2-yl)phenyl)piperazin-1-yl)ethoxy)ethoxy)ethyl)-2′,7′-difluoro-3′,6′-dihydroxy-3-oxo-3H-spiro[isobenzofuran-1,9′-xanthene]-5-carboxamide) by competitive Wee1 inhibitors.
With a cut-off of 0.3 nM, any Ki strictly below it is called t; any Ki meeting it or above is called f.

- Smi: "O=c1c2cnc(Nc3ccc(S(=O)(=O)N4CCOCC4)cc3)nc2c(-c2ccccc2)nn1-c1ccccc1Cl"
  Assigned Category: "f"
- Smi: "Cc1nn(-c2c(Cl)cncc2Cl)c(=O)c2cnc(Nc3ccc4c(c3)CN(C)C4(C)C)nc12"
  Assigned Category: "t"
- Smi: "Cc1cccc(Cl)c1-n1nc(C)c2nc(Nc3ccc4c(c3)CCNC4)ncc2c1=O"
  Assigned Category: "f"
- Smi: "C=CCn1nc(-c2ccccc2)c2nc(Nc3ccc(N4CCCN(C(C)C)CC4)c(C)c3)ncc2c1=O"
  Assigned Category: "f"
- Smi: "CN1CCN(c2ccc(Nc3ncc4c(=O)[nH]nc(C5CCCC5)c4n3)cc2)CC1"
  Assigned Category: "f"
- Smi: "CN1CCN(c2ccc(Nc3ncc4c(=O)n(-c5c(Cl)cccc5Cl)nc(-c5ccco5)c4n3)cc2)CC1"
  Assigned Category: "t"
- Smi: "CN1CCN(c2ccc(Nc3ncc4c(=O)n(-c5ccccc5)nc(-c5cccc(Cl)n5)c4n3)cc2)CC1"
  Assigned Category: "f"
- Smi: "Cc1nn(-c2ccccc2Cl)c(=O)c2cnc(Nc3ccc4c(c3)CCNC4)nc12"
  Assigned Category: "f"
- Smi: "CN1CCN(c2ccc(Nc3ncc4c(=O)n(-c5ccccc5)nc(-c5cccc(Br)c5)c4n3)cc2)CC1"
  Assigned Category: "f"
- Smi: "CN1CCN(c2ccc(Nc3ncc4c(=O)n(-c5ccccc5)nc(-c5ccccc5F)c4n3)cc2)CC1"
  Assigned Category: "f"
